Origin of the recorded values: ChEMBL document CHEMBL1137273

Data export: Ki values recorded with Dipeptidyl peptidase 9 (Homo sapiens).
Sequence (Q86TI2 whole entry): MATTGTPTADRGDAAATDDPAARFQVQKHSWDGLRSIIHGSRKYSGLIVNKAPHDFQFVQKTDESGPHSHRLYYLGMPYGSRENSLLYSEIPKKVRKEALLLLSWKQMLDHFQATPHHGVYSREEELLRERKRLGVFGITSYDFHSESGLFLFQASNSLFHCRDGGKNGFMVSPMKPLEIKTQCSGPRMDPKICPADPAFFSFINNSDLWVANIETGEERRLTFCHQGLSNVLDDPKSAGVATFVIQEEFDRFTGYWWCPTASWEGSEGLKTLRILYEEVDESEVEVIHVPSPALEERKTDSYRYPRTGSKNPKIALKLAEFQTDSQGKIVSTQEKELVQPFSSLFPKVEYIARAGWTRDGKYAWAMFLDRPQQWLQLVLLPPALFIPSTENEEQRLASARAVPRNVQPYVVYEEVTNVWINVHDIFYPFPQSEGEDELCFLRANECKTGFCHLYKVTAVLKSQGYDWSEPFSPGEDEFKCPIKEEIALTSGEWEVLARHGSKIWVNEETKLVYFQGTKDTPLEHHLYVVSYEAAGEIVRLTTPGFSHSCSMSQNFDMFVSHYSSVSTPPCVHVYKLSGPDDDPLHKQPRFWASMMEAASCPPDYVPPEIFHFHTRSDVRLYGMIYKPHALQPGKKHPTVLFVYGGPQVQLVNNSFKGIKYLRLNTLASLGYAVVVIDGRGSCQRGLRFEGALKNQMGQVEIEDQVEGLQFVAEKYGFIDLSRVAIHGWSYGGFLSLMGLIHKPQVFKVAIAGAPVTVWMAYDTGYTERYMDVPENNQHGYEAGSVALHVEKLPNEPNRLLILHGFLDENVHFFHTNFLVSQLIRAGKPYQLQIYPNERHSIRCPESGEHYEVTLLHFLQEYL

CN1C(=O)c2nc(N3CCCC(N)C3)n(Cc3ccccc3C#N)c2C1=O (configuration not stated) :: > 3 µM

Note: attention shifts to another entry.
# lookup: Dipeptidyl peptidase 9 (Homo sapiens) Ki, key = NC1CCCN(c2nc3c(n2Cc2ccccc2C(F)(F)F)C(=O)c2ccccc2C3=O)C1 (configuration not stated) > 3 µM
